Here, each record is paired with measured screen value data.
B1: PEX5 peptide 108-123 (Peroxisomal targeting signal 1 receptor), 16-mer library wild type / PEX14 Pex14 (PEX14 PEX14, residues 16-84) (parent)
chain 1: GVADLALSENWAQEFL
chain 2: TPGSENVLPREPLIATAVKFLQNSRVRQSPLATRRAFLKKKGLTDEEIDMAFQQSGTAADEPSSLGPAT

- Variants of: B1
- method: proteomic peptide phage display deep mutational scan (ProP-PD DMS): M13 P8 16-mer library selected against immobilised GST-tagged bait for four days (rounds), NGS of the eluted pools per day and pseudo-replica
- setup.conditions: with PEX14 Pex14 (PEX14 PEX14, residues 16-84); bait immobilised on MaxiSorp plates (10 µg), library pre-cleared on GST, 2 h binding at 4 °C, five washes; one round per day, days 1-4; value from days 2 and 3; scale: average fractional NGS count over selection days 2 and 3

| change | screen value |
| --- | --- |
| chain 1 N10L | 0.000191 |
| chain 1 D4S | 0.00106 |
| chain 1 E14P | 0 |
| chain 1 L16R | 0.000857 |
| chain 1 E9V | 0.000378 |
| chain 1 E9I | 0 |
| chain 1 L5S | 0.000191 |
| chain 1 E9L | 0.000321 |
| chain 1 E14T | 0.000432 |
| chain 1 A3R | 0 |
| chain 1 N10D | 0 |
| chain 1 F15K | 0 |
| chain 1 L16G | 0.00105 |
| chain 1 E9F | 0.000305 |
| chain 1 A3D | 0 |
| chain 1 A6F | 0.000385 |
| chain 1 S8K | 0 |
| chain 1 N10I | 0.000414 |
| chain 1 E14G | 0.000243 |
| chain 1 L5Y | 0.000821 |
| chain 1 A3W | 7.47e-05 |
| chain 1 Q13H | 0.000362 |
| chain 1 S8I | 0.00069 |
| chain 1 A3K | 0.000328 |
| chain 1 D4V | 0 |
| chain 1 D4W | 0.000313 |
| chain 1 E9S | 0 |
| chain 1 Q13T | 0.000462 |
| chain 1 N10P | 0.00066 |
| chain 1 L16W | 0.00162 |
| chain 1 E9Y | 9.07e-05 |
| chain 1 Q13R | 0.000241 |
| chain 1 S8P | 9.07e-05 |
| chain 1 N10M | 6.63e-05 |
| chain 1 L7G | 0.000778 |
| chain 1 V2T | 0 |
| chain 1 E14A | 0.00268 |
| chain 1 D4L | 0.00112 |
| chain 1 A6E | 0 |
| chain 1 F15W | 0.000382 |
| chain 1 S8Q | 0 |
| chain 1 D4K | 0 |
| chain 1 Q13L | 0.000475 |
| chain 1 N10K | 0.000111 |
| chain 1 L16H | 0.000215 |
| chain 1 Q13E | 0.000434 |
| chain 1 L5G | 0 |
| chain 1 D4Q | 0.000734 |
| chain 1 F15Y | 0 |
| chain 1 A3F | 0 |
| chain 1 D4T | 0 |
| chain 1 L5F | 0 |
| chain 1 V2E | 0.000749 |
| chain 1 L7P | 0.000675 |
| chain 1 W11Y | 0.00018 |
| chain 1 S8W | 9.4e-05 |
| chain 1 E9T | 9.07e-05 |
| chain 1 W11F | 0 |
| chain 1 V2I | 0 |
| chain 1 A3S | 0.000118 |
| chain 1 L7N | 0 |
| chain 1 S8H | 0.0106 |
| chain 1 A3P | 0.000212 |
| chain 1 Q13G | 0.000163 |
| chain 1 E14H | 0.000765 |
| chain 1 D4A | 0.000207 |
| chain 1 E14L | 0.000529 |
| chain 1 L5N | 0 |
| chain 1 L7K | 0.000262 |
| chain 1 L7Q | 0 |
| chain 1 E9M | 0.000152 |
| chain 1 L16N | 0 |
| chain 1 N10Y | 0.00069 |
| chain 1 A12F | 0.000389 |
| chain 1 A6H | 0.000488 |
| chain 1 Q13Y | 0.00131 |
| chain 1 Q13P | 0.000626 |
| chain 1 N10W | 0.000211 |
| chain 1 S8G | 0.000241 |
| chain 1 A12V | 0 |
| chain 1 D4P | 0 |
| chain 1 E14I | 0.000908 |
| chain 1 N10S | 0.000139 |
| chain 1 N10V | 0.000297 |
| chain 1 L7S | 0.00013 |
| chain 1 F15L | 0.000134 |
| chain 1 L16E | 0.00013 |
| chain 1 L5D | 0.000324 |
| chain 1 L16D | 0 |
| chain 1 L16K | 0.000183 |
| chain 1 E14K | 0.00049 |
| chain 1 E14Y | 0.00013 |
| chain 1 D4E | 0.000293 |
